# aptazyme ON/OFF ratio values compiled below
B1: Pistol ribozyme (parent)
chain: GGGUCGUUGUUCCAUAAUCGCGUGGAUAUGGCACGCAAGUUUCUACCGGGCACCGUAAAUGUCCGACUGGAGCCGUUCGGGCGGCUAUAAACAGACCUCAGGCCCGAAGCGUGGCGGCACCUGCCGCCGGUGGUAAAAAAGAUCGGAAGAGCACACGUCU

Variants of: B1
Test: aptazyme ON/OFF ratio, guanine; higher = stronger switching; co-transcriptional cleavage with and without guanine
// response body must contain only the number

Here's what some known entries look like.
U7A U8C U10G U11G C12U C13A ... 1.23
U7G U8C G9C U10C C13G ... 1.21
U7G U8G G9C C12G ... 1.47
U7C G9C U11C C13A ... 1.02
U8G G9C U10C U11G C12U C13U ... 1.07

In the following, a different variant is considered.
Provide only the value of recorded aptazyme ON/OFF ratio for U8A G9U U10G U11A C12A
1.21

These measurements were taken from the RNAGym collection of RNA variant scans (doi:10.1021/acssynbio.7b00057).
